inhibition at 1 µM overview
STUDY_TARGET: FAAH (Mus musculus)
Sequence (O08914 whole entry): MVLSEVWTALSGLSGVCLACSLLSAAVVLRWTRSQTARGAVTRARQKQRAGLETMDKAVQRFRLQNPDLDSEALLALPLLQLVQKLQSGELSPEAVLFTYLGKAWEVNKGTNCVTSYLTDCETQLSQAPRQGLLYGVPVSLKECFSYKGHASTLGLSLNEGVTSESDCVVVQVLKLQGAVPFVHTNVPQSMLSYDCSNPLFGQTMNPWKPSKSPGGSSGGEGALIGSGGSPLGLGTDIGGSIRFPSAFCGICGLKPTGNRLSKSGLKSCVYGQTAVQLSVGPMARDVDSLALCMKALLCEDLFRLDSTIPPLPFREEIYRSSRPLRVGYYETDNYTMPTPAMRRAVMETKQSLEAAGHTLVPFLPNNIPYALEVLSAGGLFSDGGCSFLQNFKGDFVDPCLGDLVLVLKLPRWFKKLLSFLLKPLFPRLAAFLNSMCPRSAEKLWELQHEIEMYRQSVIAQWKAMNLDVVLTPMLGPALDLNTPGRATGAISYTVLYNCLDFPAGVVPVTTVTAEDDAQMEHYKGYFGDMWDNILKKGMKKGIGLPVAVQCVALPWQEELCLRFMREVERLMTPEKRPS
ASSAY_OVERVIEW: In vitro competitive activity-based protein profiling (Table 2, % inhibition at 1 μM)
Type: biochemical
MEASUREMENT_CONTEXT: read-out: % Inhibition at 1 μM FAAH

Below, each entry is followed by its recorded inhibition at 1 µM result.
{"MOLECULE": "Cc1c(CN2CC3CN(C(=O)OC(C(F)(F)F)C(F)(F)F)CC3C2)cccc1N1CCC(F)(F)CC1 (stereo not shown)", "inhibition at 1 µM": "25 to 75%"}
{"MOLECULE": "CC(=O)N1CCN(c2ccc(CN3CC4CN(C(=O)OC(C(F)(F)F)C(F)(F)F)CC4C3)c(Cl)c2)CC1 (stereo not shown)", "inhibition at 1 µM": "25 to 75%"}
{"MOLECULE": "O=C(OC(C(F)(F)F)C(F)(F)F)N1CC2CN(Cc3cccc(Cl)c3N3CC[C@H](CF)C3)CC2C1 (stereo partly shown)", "inhibition at 1 µM": "< 25%"}
{"MOLECULE": "O=C(OC(C(F)(F)F)C(F)(F)F)N1CC2CN(Cc3ccc(Cl)cc3N3CCOCC3)CC2C1 (stereo not shown)", "inhibition at 1 µM": "25 to 75%"}

Task: Which inhibition at 1 µM value belongs to CC(C)n1cc(CN2CC3CN(C(=O)OC(C(F)(F)F)C(F)(F)F)CC3C2)c(-c2ccccc2)n1 (stereo not shown) ?
Output: < 25%

Task: Which inhibition at 1 µM value belongs to O=C(OC(C(F)(F)F)C(F)(F)F)N1CC2CN(Cc3ccc(Cl)cc3N3Cc4cccnc4C3)CC2C1 (stereo not shown) ?
Output: 25 to 75%

Task: Which inhibition at 1 µM value belongs to O=C(ON1C(=O)CCC1=O)N1CC2CN(Cc3ccc(F)cc3N3CCCC3)CC2C1 (stereo not shown) ?
Output: 25 to 75%

* * *

STUDY_TARGET: UniProtKB O35678
Sequence (O35678 whole entry): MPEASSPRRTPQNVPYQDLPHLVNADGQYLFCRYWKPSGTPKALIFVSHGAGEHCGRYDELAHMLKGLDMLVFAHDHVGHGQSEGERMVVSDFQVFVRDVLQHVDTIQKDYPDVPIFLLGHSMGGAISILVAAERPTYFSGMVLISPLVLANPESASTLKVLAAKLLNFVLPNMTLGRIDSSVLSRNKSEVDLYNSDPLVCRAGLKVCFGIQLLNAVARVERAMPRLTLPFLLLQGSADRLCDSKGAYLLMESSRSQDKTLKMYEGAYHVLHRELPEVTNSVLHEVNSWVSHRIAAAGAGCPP
ASSAY_OVERVIEW: biochemical
MEASUREMENT_CONTEXT: mouse; in vitro competitive ABPP; read-out: Mouse (IC50 value, nM) MAGL
IC50 overview

Below, each entry is followed by its recorded IC50 result.
{"COMPOUND": "Cc1c(CN2CC3CN(C(=O)ON4C(=O)CCC4=O)CC3C2)cccc1N1CCC(F)(F)CC1 (stereo not drawn)", "IC50": "< 100 nM"}
{"COMPOUND": "CC(C)c1ccc(CN2CC3CN(C(=O)OC(C(F)(F)F)C(F)(F)F)CC3C2)c(N2CCOCC2)c1 (stereo not drawn)", "IC50": "100 to 1000 nM"}
{"COMPOUND": "CCn1cc(CN2CC3CN(C(=O)OC(C(F)(F)F)C(F)(F)F)CC3C2)c(-c2ccc(N3CCC3)cc2)n1 (stereo not drawn)", "IC50": "< 100 nM"}

# input for lookup
Task: Which IC50 value belongs to O=C(OC(C(F)(F)F)C(F)(F)F)N1CC2CN(Cc3ccc(C(F)F)cc3N3CCCCC3)CC2C1 (stereo not drawn) ?
Output: < 100 nM

* * *

STUDY_TARGET: UniProt O08914
ASSAY_OVERVIEW: In vitro competitive activity-based protein profiling (Table 2, % inhibition at 1 μM)
Format: biochemical
MEASUREMENT_CONTEXT: read-out: % Inhibition at 1 μM FAAH
EXPERIMENTAL_READOUT: inhibition at 1 µM

Below, each entry is followed by its recorded inhibition at 1 µM result.
{"COMPOUND": "CC(=O)N1CCN(c2cccc(CN3CC4CN(C(=O)ON5C(=O)CCC5=O)CC4C3)c2C)CC1 (stereo not drawn)", "inhibition at 1 µM": "< 25%"}
{"COMPOUND": "O=C(OC(C(F)(F)F)C(F)(F)F)N1CC2CN(Cc3cccc(Cl)c3N3C4CCC3COC4)CC2C1 (stereo not drawn)", "inhibition at 1 µM": "< 25%"}
{"COMPOUND": "CCn1cc(CN2CC3CN(C(=O)OC(C(F)(F)F)C(F)(F)F)CC3C2)c(-c2cccc(N3CCCC3)c2)n1 (stereo not drawn)", "inhibition at 1 µM": "< 25%"}
{"COMPOUND": "O=C(ON1C(=O)CCC1=O)N1CC2CN(Cc3cccc(Cl)c3N3CCC(F)CC3)CC2C1 (stereo not drawn)", "inhibition at 1 µM": "25 to 75%"}
{"COMPOUND": "O=C(OC(C(F)(F)F)C(F)(F)F)N1CC2CN(Cc3cccc(Cl)c3N3CCC(F)CC3)CC2C1 (stereo not drawn)", "inhibition at 1 µM": "< 25%"}
{"COMPOUND": "CCn1ncc(CN2CC3CN(C(=O)OC(C(F)(F)F)C(F)(F)F)CC3C2)c1C(=O)NCCc1cccc(Cl)c1 (stereo not drawn)", "inhibition at 1 µM": "< 25%"}

Task: UniProt O08914 / inhibition at 1 µM / CC(=O)N1CCN(c2ccc(CN3CC4CN(C(=O)OC(C(F)(F)F)C(F)(F)F)CC4C3)c(F)c2)CC1 (stereo not drawn) : value?
Output: < 25%

Task: UniProt O08914 / inhibition at 1 µM / CC(C)n1cc(CN2CC3CN(C(=O)OC(C(F)(F)F)C(F)(F)F)CC3C2)c(C2CCN(S(C)(=O)=O)CC2)n1 (stereo not drawn) : value?
Output: < 25%

Task: UniProt O08914 / inhibition at 1 µM / O=C(ON1C(=O)CCC1=O)N1CC2CN(C(c3ccc(Cl)cc3)c3ccc(Cl)cc3)CC2C1 (stereo not drawn) : value?
Output: < 25%

Task: UniProt O08914 / inhibition at 1 µM / Cn1cc(CN2CC3CN(C(=O)OC(C(F)(F)F)C(F)(F)F)CC3C2)c(-c2ccccc2Cl)n1 (stereo not drawn) : value?
Output: < 25%

Task: UniProt O08914 / inhibition at 1 µM / O=C(OC(C(F)(F)F)C(F)(F)F)N1CC2CN(Cc3ccc(N4CCCCC4)cc3C(F)F)CC2C1 (stereo not drawn) : value?
Output: 25 to 75%

Task: UniProt O08914 / inhibition at 1 µM / CC(=O)N1CCN(c2cc(C(C)C)ccc2CN2CC3CN(C(=O)OC(C(F)(F)F)C(F)(F)F)CC3C2)CC1 (stereo not drawn) : value?
Output: < 25%

Task: UniProt O08914 / inhibition at 1 µM / CC1COCCN1c1ccc(CN2CC3CN(C(=O)ON4C(=O)CCC4=O)CC3C2)c(Cl)c1 (stereo not drawn) : value?
Output: 25 to 75%
